Tested on: colon cancer cell HCT-116
Assay: MTT assay, colon cancer cell HCT-116
Format: cell-based, Human
Settings: HF 20 nM, ATS/DAT/ASU/ATM 320 μM, alone or combined, 24 hours
METRIC NAME: Cell death rate (%)
Give bare numbers, in %.

INPUT: Given the entry C[C@H]1[C@H](OC(=O)CCC(=O)O)O[C@@H]2O[C@@]3(C)CC[C@H]4[C@H](C)CC[C@@H]1[C@@]24OO3 [ASU, artesunate] , report its measured Cell death rate (%).
OUTPUT: 48.31

INPUT: Given the entry C[C@H]1[C@@H](O)O[C@@H]2O[C@@]3(C)CC[C@H]4[C@H](C)CC[C@@H]1[C@@]24OO3 [DAT, dihydroartemisinin] , report its measured Cell death rate (%).
OUTPUT: 47.32

INPUT: Given the entry O=C(CC1NCCCC1O)Cn1cnc2cc(Br)c(Cl)cc2c1=O (centres unmarked) , report its measured Cell death rate (%).
OUTPUT: 33.06

INPUT: Given the entry `C[C@@H]1CC[C@H]2[C@@H](C)C(=O)O[C@@H]3O[C@@]4(C)CC[C@@H]1[C@]32OO4` , report its measured Cell death rate (%).
OUTPUT: 48.31

New cases:
INPUT: Given the entry `CO[C@H]1O[C@@H]2O[C@@]3(C)CC[C@H]4[C@H](C)CC[C@@H]([C@H]1C)[C@@]24OO3` , report its measured Cell death rate (%).
OUTPUT: 46.32
